These data points were gathered from ChEMBL document CHEMBL3046091.

- System: Candida albicans
- experimental_protocol: Antifungal activity against Candida albicans ATCC 10231 at 100 ug/ml by cup-plate method
- Type: functional
- test_conditions: read-out: IZ
Recorded zone of inhibition at 100 µg/mL, one value per entry.
experimental_readout: zone of inhibition at 100 µg/mL (mm)

> print(dat)
                           substance.smiles  value.units  reported.value
1  COc1ccc(/C=N/c2ccc(-n3c(Cc4ccccc4Nc4c(Cl)cccc4Cl)nc4ccc(Br)cc4c3=O)cc2)cc1           mm               3
2  CN(C)c1ccc(/C=N/c2ccc(-n3c(Cc4ccccc4Nc4c(Cl)cccc4Cl)nc4ccc(Br)cc4c3=O)cc2)cc1           mm               1
3  COc1ccc(/C=N/c2ccc(-n3c(Cc4ccccc4Nc4c(Cl)cccc4Cl)nc4ccc(Br)cc4c3=O)cc2)c(O)c1           mm               0

====

The entries below are paired with their reported Activity.
- Test system: Escherichia coli
- experimental_protocol: Antibacterial activity against Escherichia coli ATCC 25922 at 50 to 100 ug/ml by cup-plate method
- Type: functional
experimental_readout: Activity

> print(dat)
                                   compound  reported.value
1  O=c1c2cc(Br)ccc2nc(Cc2ccccc2Nc2c(Cl)cccc2Cl)n1-c1ccc(/N=C/c2ccc(Cl)cc2)cc1          49.68%
2  CN(C)c1ccc(/C=N/c2ccc(-n3c(Cc4ccccc4Nc4c(Cl)cccc4Cl)nc4ccc(Br)cc4c3=O)cc2)cc1              0%
3  O=C1C(Cl)C(c2ccc(O)cc2)N1c1ccc(-n2c(Cc3ccccc3Nc3c(Cl)cccc3Cl)nc3ccc(Br)cc3c2=O)cc1 (configuration not stated)          37.89%
4  O=C1C(Cl)C(c2ccccc2[N+](=O)[O-])N1c1ccc(-n2c(Cc3ccccc3Nc3c(Cl)cccc3Cl)nc3ccc(Br)cc3c2=O)cc1 (configuration not stated)          37.56%
5  COc1cc(C2C(Cl)C(=O)N2c2ccc(-n3c(Cc4ccccc4Nc4c(Cl)cccc4Cl)nc4ccc(Br)cc4c3=O)cc2)cc(OC)c1OC (configuration not stated)             50%
6  O=c1c2cc(Br)ccc2nc(Cc2ccccc2Nc2c(Cl)cccc2Cl)n1-c1ccc(/N=C/c2ccc(O)cc2)cc1           31.5%
7  COc1ccc(/C=N/c2ccc(-n3c(Cc4ccccc4Nc4c(Cl)cccc4Cl)nc4ccc(Br)cc4c3=O)cc2)c(O)c1          42.86%

====

- Test system: Pseudomonas aeruginosa
- experimental_protocol: Antibacterial activity against Pseudomonas aeruginosa ATCC 9027 at 50 to 100 ug/ml by cup-plate method
- Assay type: functional
Activity less than 40% is Satisfied; Activity greater than or equal to 40% is Not satisfied.

> print(dat)
                                   molecule             measured.on  discrete.label
1  CCN(CC)c1ccc(C2C(Cl)C(=O)N2c2ccc(-n3c(Cc4ccccc4Nc4c(Cl)cccc4Cl)nc4ccc(Br)cc4c3=O)cc2)c(O)c1 (configuration not stated)  Pseudomonas aeruginosa       Satisfied
2  O=c1c2cc(Br)ccc2nc(Cc2ccccc2Nc2c(Cl)cccc2Cl)n1-c1ccc(/N=C/c2ccc(O)cc2)cc1  Pseudomonas aeruginosa   Not satisfied
3  O=c1c2cc(Br)ccc2nc(Cc2ccccc2Nc2c(Cl)cccc2Cl)n1-c1ccc(/N=C/c2ccccc2[N+](=O)[O-])cc1  Pseudomonas aeruginosa       Satisfied
4  CCN(CC)c1ccc(/C=N/c2ccc(-n3c(Cc4ccccc4Nc4c(Cl)cccc4Cl)nc4ccc(Br)cc4c3=O)cc2)c(O)c1  Pseudomonas aeruginosa       Satisfied
5  COc1cc(/C=N/c2ccc(-n3c(Cc4ccccc4Nc4c(Cl)cccc4Cl)nc4ccc(Br)cc4c3=O)cc2)cc(OC)c1OC  Pseudomonas aeruginosa   Not satisfied
